- system.under.test: human c-Met (HGFR), full length, on the cell surface (human, UniProt P08581 25-1390)
- Sequence (P08581 25-1390 limits assumed): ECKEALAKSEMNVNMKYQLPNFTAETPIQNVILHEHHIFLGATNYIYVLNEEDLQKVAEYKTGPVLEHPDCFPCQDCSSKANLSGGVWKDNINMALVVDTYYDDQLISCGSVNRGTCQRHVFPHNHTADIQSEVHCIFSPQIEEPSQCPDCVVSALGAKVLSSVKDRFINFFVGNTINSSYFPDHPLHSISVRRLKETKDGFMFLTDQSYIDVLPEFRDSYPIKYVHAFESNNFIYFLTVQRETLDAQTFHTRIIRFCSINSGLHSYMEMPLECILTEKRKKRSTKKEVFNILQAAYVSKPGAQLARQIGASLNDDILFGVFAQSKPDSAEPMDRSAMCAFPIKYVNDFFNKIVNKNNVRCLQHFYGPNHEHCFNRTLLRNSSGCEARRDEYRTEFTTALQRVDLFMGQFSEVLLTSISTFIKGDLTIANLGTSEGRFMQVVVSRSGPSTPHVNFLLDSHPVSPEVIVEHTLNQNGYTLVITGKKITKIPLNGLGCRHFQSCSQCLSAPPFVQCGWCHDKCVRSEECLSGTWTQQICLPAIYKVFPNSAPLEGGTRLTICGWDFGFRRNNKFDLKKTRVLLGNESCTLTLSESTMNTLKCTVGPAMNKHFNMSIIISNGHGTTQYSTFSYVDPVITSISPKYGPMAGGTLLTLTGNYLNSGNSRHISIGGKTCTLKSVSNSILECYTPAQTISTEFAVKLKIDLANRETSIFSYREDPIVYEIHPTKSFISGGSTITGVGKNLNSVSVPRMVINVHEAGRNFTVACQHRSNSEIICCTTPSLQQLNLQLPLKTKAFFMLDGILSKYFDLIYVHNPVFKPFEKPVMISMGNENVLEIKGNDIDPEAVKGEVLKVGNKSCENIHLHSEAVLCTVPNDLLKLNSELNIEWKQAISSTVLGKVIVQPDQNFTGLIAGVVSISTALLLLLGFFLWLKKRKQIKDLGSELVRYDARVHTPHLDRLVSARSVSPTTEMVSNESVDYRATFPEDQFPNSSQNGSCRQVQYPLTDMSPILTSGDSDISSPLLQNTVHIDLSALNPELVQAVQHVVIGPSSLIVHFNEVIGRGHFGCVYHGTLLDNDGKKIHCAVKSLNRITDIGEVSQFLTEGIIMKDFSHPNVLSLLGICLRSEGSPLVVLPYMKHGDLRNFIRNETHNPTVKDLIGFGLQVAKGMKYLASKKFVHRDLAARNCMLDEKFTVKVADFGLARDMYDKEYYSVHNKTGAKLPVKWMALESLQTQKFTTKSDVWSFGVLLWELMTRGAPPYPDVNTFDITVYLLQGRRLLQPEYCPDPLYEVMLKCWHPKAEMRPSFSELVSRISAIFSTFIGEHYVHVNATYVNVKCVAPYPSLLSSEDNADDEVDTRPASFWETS
- test.description: cell-based or functional assay
IC50, in vitro cytotoxicity, PC-3, +HGF reference

Measured IC50, in vitro cytotoxicity, PC-3, +HGF, ADC3c (antibody, human IgG1, kappa, V domains shown, vc-seco-DUBA linker-drug on the engineered cysteine at HC position 41 (Kabat); DAR 1.8) VH: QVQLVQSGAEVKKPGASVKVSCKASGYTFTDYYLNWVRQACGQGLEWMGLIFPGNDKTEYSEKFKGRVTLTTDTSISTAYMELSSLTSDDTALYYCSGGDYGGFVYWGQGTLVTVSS VL: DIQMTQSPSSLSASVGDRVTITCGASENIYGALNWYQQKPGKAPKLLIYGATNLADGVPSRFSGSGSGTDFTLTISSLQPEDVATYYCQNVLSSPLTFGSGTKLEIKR : ~1.85 nM

Measured IC50, in vitro cytotoxicity, PC-3, +HGF, ADC2a (antibody, human IgG1, kappa, V domains shown, vc-seco-DUBA linker-drug on the engineered cysteine at HC position 41 (Kabat); DAR 1.7) VH: QVQLVQSGAELRKPGSSVKVSCRASGYVFPDYEMHWVRQACGQGLEWMGAFDPETGDTTYNQNFKGRVTIAADKSTSTAYMELRSLRSEDTAIYYCARDYKYLYYYAMDNWGQGTMVTVSS VL: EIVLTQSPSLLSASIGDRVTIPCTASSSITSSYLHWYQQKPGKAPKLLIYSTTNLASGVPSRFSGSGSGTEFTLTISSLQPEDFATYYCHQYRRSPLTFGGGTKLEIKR : ~0.74 nM

Shifting focus to the binder that follows.
Measured IC50, in vitro cytotoxicity, PC-3, +HGF, ADC3b (antibody, human IgG1, kappa, V domains shown, vc-seco-DUBA linker-drug on the engineered cysteine at HC position 41 (Kabat); DAR 1.9, Antibody-drug conjugate of mAb3b; also called mAb3b-vc-seco-DUBA) VH: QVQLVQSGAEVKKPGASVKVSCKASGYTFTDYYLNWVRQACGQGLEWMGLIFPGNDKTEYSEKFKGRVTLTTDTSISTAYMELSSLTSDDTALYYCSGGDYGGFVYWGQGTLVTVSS VL: DIQMTQSPSSLSASVGDRVTISCGASENIYGALNWYQQQPGKAPKVLIFGATNLADGVPSRFSGSGSGTDFTLTISSLQPEDFATYYCQNVLSSPLTFGQGTKLEIKR : ~1.01 nM
